- test.summary: NCI Yeast Anticancer Drug Screen. Data for the bub3 strain (AID 167)
- setup.conditions: S. cerevisiae bub3 mutant strain, at 3.7 µM, active compounds read high
The panel holds about 79,000 compounds, 15% with a hit somewhere; the sample as a whole holds those more often.
Field: growth inhibition. Provide a value for each of the compounds that follow.
// note: answer is a bare numeric in %

Bench note: what growth inhibition did `CCCCCCc1cc(C(=O)OC/C(C)=N/NC(N)=O)c2ccccc2n1` show?
-4

Param item: Nc1ccn(C2OC(CO)C3[O][Sn]([c]4ccccc4)([c]4ccccc4)[O]C32)c(=O)n1 (stereo not given)
1

Param item: `CCC/C(Cl)=N\OC(=O)Nc1cccc(C(F)(F)F)c1`
44

Param item: `O=Cc1cccc2ccc3ccccc3c12`
-4

Param item: COc1cc(C2C3=C(COC3=O)Oc3cc4c(cc32)OCO4)ccc1O (stereo not given)
1

Param item: `COc1ccc(/C=C2\SC(=S)N(/C=C/c3nc4ccccc4[nH]c3=O)C2=O)cc1OC`
4

Param item: `CC(C)NC(=O)OCc1c(COC(=O)NC(C)C)c(-c2ccc(Cl)c(Cl)c2)n2c1CCC2`
-66

Param item: O=[N+]([O-])CC(SCc1ccccc1)c1ccc2c(c1)OCO2 (stereo not given)
13

Param item: `CC(C)(Br)C(=O)/C=C/c1ccc(Cl)c(Cl)c1`
-3

Param item: `COP(=O)(OC)/C(=C\C1=CN(C(c2ccccc2)(c2ccccc2)c2ccccc2)CN1)NC=O`
-41

Data origin, for the record: PubChem BioAssay (NCI)
